- System: CD2F1 mice, L1210 leukemia ip, survival T/C
- EXPERIMENT: NCI In Vivo Anticancer Drug Screen. Data for tumor model L1210 Leukemia (intraperitoneal) in CD2F1 (CDF1) mice
- CONDITION_SUMMARY: endpoint: mean survival time; dose: 12.5 mg/kg/injection; schedule: Q01DX009 (ip); vehicle: other; higher = longer survival
Inconclusive results and toxic doses are left out.
QUANTITY_NAME: T/C

CC1(C)N=C(N)N=C(N)N1c1cccc(OCCOc2ccc(NC(=O)CBr)cc2)c1: 113 % of control
[N-]=[N+]=NCC(=O)N1c2ccccc2Sc2ccccc21: 95 % of control
OC(c1ccccc1)(c1ccccc1)c1ccc(CN2CCOCC2)cc1: 101 % of control
Cc1ccc(S(=O)(=O)NCCN(CCNS(=O)(=O)c2ccc(C)cc2)S(=O)(=O)c2ccc(C)cc2)cc1: 88 % of control
COC(=O)NC(=O)c1cn[nH]n1: 98 % of control
CC(=O)OCC1OC(OC(C)=O)C(NC(=O)Nc2ccccc2)C(OC(C)=O)C1OC(C)=O (configuration not stated): 96 % of control
COc1ccc(CCN(C=O)CCc2ccc(OC)c(OC)c2)cc1OC: 98 % of control
